- SYSTEM_TESTED: T1, human PTH/PTHrP receptor (PTH1 receptor) (human, UniProt Q03431 27-593)
- T1 construct: whole, on cells; Native receptor; Assayed in three preparations: purified human renal cortical membranes, SaOS-2 membranes and intact SaOS-2 cells; also called common PTH/PTHrP receptor; human renal receptor
- T1 sequence (looked up): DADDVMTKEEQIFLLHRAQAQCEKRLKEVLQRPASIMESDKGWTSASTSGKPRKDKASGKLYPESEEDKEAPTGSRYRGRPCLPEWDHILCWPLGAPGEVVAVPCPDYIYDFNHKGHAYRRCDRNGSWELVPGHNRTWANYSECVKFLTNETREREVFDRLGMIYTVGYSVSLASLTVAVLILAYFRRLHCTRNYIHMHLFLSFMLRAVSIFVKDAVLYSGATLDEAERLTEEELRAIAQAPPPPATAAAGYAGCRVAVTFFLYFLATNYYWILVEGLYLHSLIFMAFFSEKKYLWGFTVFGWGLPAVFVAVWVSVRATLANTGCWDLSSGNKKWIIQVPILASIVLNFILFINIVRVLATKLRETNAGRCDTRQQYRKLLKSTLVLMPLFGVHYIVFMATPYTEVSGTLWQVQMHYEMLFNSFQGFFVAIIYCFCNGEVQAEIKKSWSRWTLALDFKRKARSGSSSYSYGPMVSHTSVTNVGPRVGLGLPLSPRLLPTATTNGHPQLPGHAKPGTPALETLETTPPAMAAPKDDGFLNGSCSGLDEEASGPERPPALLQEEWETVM
- PROCEDURE_DETAILS: competition of 125I-(Tyr36)hPTHrP-(1-36)NH2 binding, intact SaOS-2 cells, 15 C, 150 min
Non-standard residues stand in square brackets, D forms with d. No end group written: not given here. Nle = CCCC[C@H](N)C(=O)O
Give measured IC50 for each item. Keep answers brief.
Give bare numbers, in nM.

Consider the reported IC50 for these binders:
INSERT INTO assay_data (binder, reading) VALUES
  ('bPTH-(1-84) (ligand, bovine, UniProt P01268 32-115, looked up, range 1-84; From the National Hormone and Pituitary Program (NIDDK); also called bovine PTH-(1-84)) AVSEIQFMHNLGKHLSSMERVEWLRKKLQDVHNFVALGASIAYRDGSSQRPRKKEDNVLVESHQKSLGEADKADVDVLIKAKPQ', 17.5),
  ('SVSEIQL[Nle]HNLGKHLNS[Nle]ERVEWLRKKLQDVHNY [(Nle^8,18, Tyr^34)hPTH-(1-34)]', 2.8);

Here is the next item to consider.
Notebook: AVSEIQLMHNLGKHLASVERMQWLRKKLQDVHNF (peptide, UniProt P04089 32-65, looked up, range 1-34; Synthetic, Bachem; also called rPTH-(1-34); rat (r)PTH-(1-34)) [rat PTH-(1-34)] , IC50 read as 0.9
